Value source: ChEMBL document CHEMBL3992505

# assay details: Cytotoxicity in human HepG2 cells after 48 hrs by Cell-titer Glo reagent based assay
# test settings: read-out: LD50

[
  {
    "entry smiles": "[2H]C([2H])([2H])Oc1ccc2c(c1)C(=O)N1CCC[C@H]1c1c(C(=O)O)ncn1-2",
    "CC50 at 48 h": "> 400 µM"
  },
  {
    "entry smiles": "COc1ccc2c(c1)C(=O)N1CCC[C@H]1c1c(C(=O)OCC(C)C)ncn1-2",
    "CC50 at 48 h": "> 200 µM"
  },
  {
    "entry smiles": "COc1ccc2c(c1)C(=O)N1CCC[C@H]1c1c(C(=O)OC(C(F)(F)F)C(F)(F)F)ncn1-2",
    "CC50 at 48 h": "> 400 µM"
  },
  {
    "entry smiles": "[2H]C([2H])([2H])Oc1ccc2c(c1)C(=O)N1CCC[C@H]1c1c(C(=O)N(C)C)ncn1-2",
    "CC50 at 48 h": "> 400 µM"
  },
  {
    "entry smiles": "[2H]C([2H])([2H])Oc1ccc2c(c1)C(=O)N1CCC[C@H]1c1c(C(=O)SCC)ncn1-2",
    "CC50 at 48 h": "> 100 µM"
  },
  {
    "entry smiles": "[2H]C([2H])([2H])Oc1ccc2c(c1)C(=O)N1CCC[C@H]1c1c(C(=O)OCC(C)C)ncn1-2",
    "CC50 at 48 h": "> 200 µM"
  },
  {
    "entry smiles": "[2H]C([2H])([2H])Oc1ccc2c(c1)C(=O)N1CCC[C@H]1c1c(C(=O)SC(C)(C)C)ncn1-2",
    "CC50 at 48 h": "> 100 µM"
  },
  {
    "entry smiles": "[2H]C([2H])([2H])Oc1ccc2c(c1)C(=O)N1CCC[C@H]1c1c(C(=O)OC(C)(C)C)ncn1-2",
    "CC50 at 48 h": "> 400 µM"
  },
  {
    "entry smiles": "CCOC(=O)c1ncn2c1[C@@H]1CCCN1C(=O)c1cc(O)ccc1-2",
    "CC50 at 48 h": "> 400 µM"
  },
  {
    "entry smiles": "CCNC(=O)c1ncn2c1[C@@H]1CCCN1C(=O)c1cc(OC)ccc1-2",
    "CC50 at 48 h": "> 400 µM"
  },
  {
    "entry smiles": "COc1ccc2c(c1)C(=O)N1CCC[C@H]1c1c(C(=O)OC(C)(C)C)ncn1-2",
    "CC50 at 48 h": "> 400 µM"
  },
  {
    "entry smiles": "COc1ccc2c(c1)C(=O)N1CCC[C@H]1c1c(C(=O)NC(C)(C)C)ncn1-2",
    "CC50 at 48 h": "> 400 µM"
  },
  {
    "entry smiles": "COc1ccc2c(c1)C(=O)N1CCC[C@H]1c1c(C(=O)SC(C)(C)C)ncn1-2",
    "CC50 at 48 h": "> 100 µM"
  },
  {
    "entry smiles": "CC(C)(C)OC(=O)c1ncn2c1[C@@H]1CCCN1C(=O)c1cc(O)ccc1-2",
    "CC50 at 48 h": "> 400 µM"
  },
  {
    "entry smiles": "[2H]C([2H])([2H])Oc1ccc2c(c1)C(=O)N1CCC[C@H]1c1c(C(=O)OCC)ncn1-2",
    "CC50 at 48 h": "> 400 µM"
  },
  {
    "entry smiles": "COc1ccc2c(c1)C(=O)N1CCC[C@H]1c1c(C(=O)NC3CC3)ncn1-2",
    "CC50 at 48 h": "> 400 µM"
  },
  {
    "entry smiles": "CNC(=O)c1ncn2c1[C@@H]1CCCN1C(=O)c1cc(OC)ccc1-2",
    "CC50 at 48 h": "> 400 µM"
  },
  {
    "entry smiles": "COC(=O)c1ncn2c1[C@@H]1CCCN1C(=O)c1cc(OC)ccc1-2",
    "CC50 at 48 h": "> 400 µM"
  }
]
